Just for reference, patent US20190367619A1 is where these values come from.

# targetDesc: T1, human galectin-10-His (human)
# T1 construct: The last M of the tag may be Met1 of galectin-10; also called humanGal10-His; hGal10
# T1 chain: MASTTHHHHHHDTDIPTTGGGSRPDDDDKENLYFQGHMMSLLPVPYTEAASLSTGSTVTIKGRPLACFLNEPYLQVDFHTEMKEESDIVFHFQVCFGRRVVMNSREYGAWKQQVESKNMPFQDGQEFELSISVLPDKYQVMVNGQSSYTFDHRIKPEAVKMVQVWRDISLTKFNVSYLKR
# assayNotes: SPR Biacore (summary table)
measurementKind: Kd

The examples below pair each entry with its known result.
8H11 scFv-human Fc (Fc fusion, also called 008H11; not shown: CH2-CH3 constant domains of human IgG1 (pUPEX50 scFv-Fc fusion vector)) scFv: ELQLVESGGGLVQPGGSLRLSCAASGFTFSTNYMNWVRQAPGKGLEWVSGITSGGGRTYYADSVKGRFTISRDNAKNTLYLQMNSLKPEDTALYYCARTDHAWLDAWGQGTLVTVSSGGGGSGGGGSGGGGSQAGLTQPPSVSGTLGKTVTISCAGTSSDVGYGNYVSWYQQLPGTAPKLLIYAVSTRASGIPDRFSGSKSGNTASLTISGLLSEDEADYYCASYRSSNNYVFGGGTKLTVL = 1.8 nM
11F12 scFv-human Fc (Fc fusion, also called 011F12; not shown: CH2-CH3 constant domains of human IgG1 (pUPEX50 scFv-Fc fusion vector)) scFv: QVQLQESGGGLVQPGGSLRLSCAASGFTFSTNYMNWVRQAPGKGLEWVSGITSGGGRTYYADSVKGRFTISRDNAKNTLYLQMNSLKPEDTALYYCARTDHAWLDAWGQGTLVTVSSGGGGSGGGGSGGGGSHSAVTQPPSVSGTLGKTVTISCAGTSSDVGYGNYVSWYQHLPGTAPKLLIYAVSTRASGVPDRFSGSKSGNTASLTISGLQSEDEGDYYCASYSVRNNVVFGGGTRLTVL = 2.3 nM
10A06 scFv-human Fc (Fc fusion, also called 010A06; not shown: CH2-CH3 constant domains of human IgG1 (pUPEX50 scFv-Fc fusion vector)) scFv: QVQLVESGGGLVQPGGSLRLSCAASGFTFGNYDMSWVRQAPGKGPEWVSDINSGGGSTYYADSVKGRFTISRDNAKNSLLLQMNSLKPEDTAVYYCATGYTGYYYWGQGTQVTVSSGGGGSGGGGSGGGGSQTVVTQEPSLSVSPGGTVTLTCGLSSGSVTSSNYPAWYQQTPGQAPRALIYSINSRHSGVPDRFSGSISGNKAALTITGAQAEDEADYYCTLYMGTGSNNVVFGGGTHLTVL = 0.3 nM

// query Return value of Kd for input 7B07 scFv-human Fc (Fc fusion, also called 007B07; not shown: CH2-CH3 constant domains of human IgG1 (pUPEX50 scFv-Fc fusion vector)) scFv: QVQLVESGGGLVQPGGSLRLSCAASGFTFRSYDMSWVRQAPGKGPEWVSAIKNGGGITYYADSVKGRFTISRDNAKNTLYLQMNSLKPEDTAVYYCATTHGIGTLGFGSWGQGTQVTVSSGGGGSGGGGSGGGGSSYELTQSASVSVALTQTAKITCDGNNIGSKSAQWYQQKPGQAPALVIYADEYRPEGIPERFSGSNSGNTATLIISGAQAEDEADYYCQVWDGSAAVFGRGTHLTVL , no commentary.
// result 0.8 nM
